- TEST TARGET: Env of HIV-1 strain H086.8 (HIV-1)
- MEASUREMENT PROTOCOL: cell-based or functional assay
Recorded neutralization IC50 for the following binders

Consider the reported neutralization IC50 for these binders:
BINDER: γ59κ61 (antibody, V domains shown) VH: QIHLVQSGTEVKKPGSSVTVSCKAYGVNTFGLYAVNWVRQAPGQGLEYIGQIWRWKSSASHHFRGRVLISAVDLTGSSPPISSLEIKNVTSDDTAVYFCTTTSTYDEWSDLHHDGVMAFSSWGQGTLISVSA VL: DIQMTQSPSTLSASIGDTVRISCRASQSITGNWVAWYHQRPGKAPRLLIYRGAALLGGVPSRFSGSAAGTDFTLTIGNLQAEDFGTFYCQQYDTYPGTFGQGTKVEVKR
neutralization IC50: > 15 µg/mL

BINDER: γ20κ11 (antibody, V domains shown) VH: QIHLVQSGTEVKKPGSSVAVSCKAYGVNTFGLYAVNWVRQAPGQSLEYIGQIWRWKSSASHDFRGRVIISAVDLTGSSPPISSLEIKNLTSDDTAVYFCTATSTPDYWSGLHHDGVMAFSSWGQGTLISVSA VL: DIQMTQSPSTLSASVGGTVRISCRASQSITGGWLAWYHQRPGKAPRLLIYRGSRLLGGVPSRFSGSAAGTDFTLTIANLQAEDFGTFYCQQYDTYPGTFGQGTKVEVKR
neutralization IC50: > 15 µg/mL

Okay, next one:
Entry γ3κ3 (antibody, V domains shown) VH: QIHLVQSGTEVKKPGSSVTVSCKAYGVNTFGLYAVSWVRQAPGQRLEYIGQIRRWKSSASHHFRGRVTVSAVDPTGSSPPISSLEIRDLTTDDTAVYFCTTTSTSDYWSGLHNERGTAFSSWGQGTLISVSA VL: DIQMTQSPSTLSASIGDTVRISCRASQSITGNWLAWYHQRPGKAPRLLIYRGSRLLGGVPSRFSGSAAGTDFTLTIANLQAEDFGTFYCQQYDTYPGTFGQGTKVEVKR , neutralization IC50 reported as 3.31 µg/mL
